Ref: patent US7375083B2

method: Intranasal bioavailability of hydrocodone conjugates in rats, LC/MS/MS
settings: intranasal, 1 mg/kg dose, hydrocodone plus hydromorphone
Where a SMILES comes first, the peptide text is derived from it. The star is where a group is joined. X1 = COc1ccc2c3c1O[C@H]1C(O*)=CC[C@H]4[C@@H](C2)N(C)CC[C@]314
Recorded measurements of AUC (ng/ml h) 0-1 h, one per entry
Numbers only; they are read as ng·h/mL.

Need AUC (ng/ml h) 0-1 h, item CC[C@H](C)[C@H](NC(=O)[C@H](CC(=O)O)NC(=O)[C@@H](N)CC(=O)O)C(=O)OC1=CC[C@H]2[C@H]3Cc4ccc(OC)c5c4[C@@]2(CCN3C)[C@H]1O5 [DDI-HC, Asp-Asp-Ile-Hydrocodone]
88

Request the reported AUC (ng/ml h) 0-1 h associated with CC[C@H](C)[C@H](NC(=O)[C@H](Cc1ccccc1)NC(=O)[C@H](Cc1ccccc1)NC(=O)[C@H](Cc1ccc(O)cc1)NC(=O)[C@@H](N)Cc1ccc(O)cc1)C(=O)OC1=CC[C@H]2[C@H]3Cc4ccc(OC)c5c4[C@@]2(CCN3C)[C@H]1O5 [YYFFI[SEQ ID NO: 3]-HC] (H-YYFFI-X1)
20

Need AUC (ng/ml h) 0-1 h, item COc1ccc2c3c1O[C@H]1C(OC(=O)[C@H](Cc4ccccc4)NC(=O)[C@H](Cc4ccccc4)NC(=O)[C@H](Cc4ccccc4)NC(=O)[C@H](CCC(=O)O)NC(=O)[C@@H](N)CCC(=O)O)=CC[C@H]4[C@@H](C2)N(C)CC[C@]314 [EEFFF[SEQ ID NO: 3]-HC] (H-EEFFF-X1)
21

Value lookup for AUC (ng/ml h) 0-1 h; key = CC[C@H](C)[C@H](NC(=O)[C@H](Cc1ccc(O)cc1)NC(=O)[C@@H](N)Cc1ccc(O)cc1)C(=O)OC1=CC[C@H]2[C@H]3Cc4ccc(OC)c5c4[C@@]2(CCN3C)[C@H]1O5 [YYI-HC, Tyr-Tyr-Ile-Hydrocodone]
12

* * *

method: Intravenous bioavailability of hydrocodone conjugates in rats, LC/MS/MS
settings: male, Sprague-Dawley, rat, plasma, iv, 1 mg/kg
outcome_measure: Cmax (ng/mL)
I only need the number, in ng/mL, no unit after it.

I have this compound here, COc1ccc2c3c1O[C@H]1C(=O)CC[C@H]4[C@@H](C2)N(C)CC[C@]314 [Hydrocodone, reference compound] , and I need its recorded Cmax.
43

* * *

method: Crossover pharmacokinetics in dogs, oral vs 30-min intravenous infusion, LC-MS/MS
Format: in vivo, male beagle dogs
settings: male, beagle, dog, plasma, iv, 2 mg/kg, male beagle dogs 1-3 and Mean; 30-min iv infusion; 2 mg/kg/h (free form); read-out: Vss of L-lysine-d-amphetamine
outcome_measure: Vd (L/kg)
Could you give me the number in L/kg? Just the number is fine.

So what's the measured Vd for this one? CC(Cc1ccccc1)NC(=O)C(N)CCCCN (stereo not shown)
0.656

* * *

method: Intravenous bioavailability of hydrocodone conjugates in rats, LC/MS/MS
settings: male, Sprague-Dawley, rat, plasma, iv, 1 mg/kg
outcome_measure: AUC
Please state the value followed by its unit.

Give the measured AUC of COc1ccc2c3c1O[C@H]1C(=O)CC[C@H]4[C@@H](C2)N(C)CC[C@]314 [Hydrocodone, reference compound] .
24.1 ng·h/mL
